Values were extracted from ChEMBL document CHEMBL5543175.

Tested System: Protein cereblon/Tyrosine-protein phosphatase non-receptor type 1 (Homo sapiens, UniProt P18031+Q96SW2)
Procedure Summary: PROTAC activity at PTP1B/CRBN in insulin treated human HepG2 cells assessed as protein degradation at 125 nM incubated for 72 hrs by Western blot analysis relative to control
Type: cell-based
Sequence (P18031 whole entry, looked up): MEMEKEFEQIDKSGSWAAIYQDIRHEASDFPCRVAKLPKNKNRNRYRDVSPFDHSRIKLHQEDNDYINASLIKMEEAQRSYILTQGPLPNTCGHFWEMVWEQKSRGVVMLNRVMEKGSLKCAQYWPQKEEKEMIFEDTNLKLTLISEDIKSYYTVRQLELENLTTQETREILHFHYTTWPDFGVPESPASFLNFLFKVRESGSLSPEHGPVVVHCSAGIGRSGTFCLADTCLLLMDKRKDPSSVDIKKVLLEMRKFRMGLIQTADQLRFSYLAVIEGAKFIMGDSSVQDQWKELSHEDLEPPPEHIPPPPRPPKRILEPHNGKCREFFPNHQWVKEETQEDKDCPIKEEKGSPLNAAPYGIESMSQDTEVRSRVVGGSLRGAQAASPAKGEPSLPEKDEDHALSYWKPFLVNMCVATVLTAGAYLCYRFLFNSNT
Sequence (Q96SW2 whole entry, looked up): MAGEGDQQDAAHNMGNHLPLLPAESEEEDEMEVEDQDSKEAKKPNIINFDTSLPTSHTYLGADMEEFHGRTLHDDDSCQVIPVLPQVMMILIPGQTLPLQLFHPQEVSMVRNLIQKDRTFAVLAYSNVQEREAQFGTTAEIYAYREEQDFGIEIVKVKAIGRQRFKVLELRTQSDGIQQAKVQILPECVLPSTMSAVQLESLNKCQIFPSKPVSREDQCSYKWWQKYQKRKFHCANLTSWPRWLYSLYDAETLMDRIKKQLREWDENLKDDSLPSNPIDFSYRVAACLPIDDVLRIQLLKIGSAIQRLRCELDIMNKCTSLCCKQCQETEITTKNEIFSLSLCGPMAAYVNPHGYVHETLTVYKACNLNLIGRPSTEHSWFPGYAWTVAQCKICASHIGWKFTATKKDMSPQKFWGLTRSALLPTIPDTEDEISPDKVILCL
Quantity Name: Activity (%)
One number for each entry, in %.

Compound	Readout Value
CC1(C)CC[C@]2(C(=O)NCCCOCCCCOCCCNc3cccc4c3C(=O)N(C3CCC(=O)NC3=O)C4=O)CC[C@]3(C)C(=CC[C@@H]4[C@@]5(C)CC[C@H](O)C(C)(C)[C@@H]5CC[C@]43C)[C@@H]2C1 (some centres not stated)	43

Now look at this one.
Q. For C[C@H]1[C@H](C)CC[C@]2(C(=O)NCCCCCCOCCOCCOCC(=O)Nc3cccc4c3C(=O)N(C3CCC(=O)NC3=O)C4=O)CC[C@]3(C)C(=CC[C@@H]4[C@@]5(C)CC[C@H](O)C(C)(C)[C@@H]5CC[C@]43C)[C@H]12 (some centres not stated) , what is its reported Activity?
A. 55

----------
Tested System: Protein cereblon/Tyrosine-protein phosphatase non-receptor type 1 (Homo sapiens, UniProt P18031+Q96SW2)
Procedure Summary: PROTAC activity at PTP1B/CRBN in insulin treated human HepG2 cells assessed as protein degradation at 1 nM incubated for 72 hrs by Western blot analysis relative to control
Assay type: cell-based
Quantity Name: Activity (%)
Answers are plain numbers, in %.

Q. I'd like to know its Activity. The compound in question is C[C@H]1[C@H](C)CC[C@]2(C(=O)NCCCCCCOCCOCCOCC(=O)Nc3cccc4c3C(=O)N(C3CCC(=O)NC3=O)C4=O)CC[C@]3(C)C(=CC[C@@H]4[C@@]5(C)CC[C@H](O)C(C)(C)[C@@H]5CC[C@]43C)[C@H]12 (some centres not stated)
A. 33

----------
For each record, write down the corresponding DC50.
Tested System: Protein cereblon/Tyrosine-protein phosphatase non-receptor type 1 (Homo sapiens, UniProt P18031+Q96SW2)
Procedure Summary: PROTAC activity at PTP1B/CRBN in insulin treated human HepG2 cells assessed as protein degradation incubated for 48 hrs by Western blot analysis
Type: cell-based
Sequence (P18031 whole entry): as the sequence (P18031 whole entry, looked up) above
Sequence (Q96SW2 whole entry): as the sequence (Q96SW2 whole entry, looked up) above
Answers are plain numbers, in nM.

Compound	Result Units	DC50
C[C@H]1[C@H](C)CC[C@]2(C(=O)NCCCCCCOCCOCCOCC(=O)Nc3cccc4c3C(=O)N(C3CCC(=O)NC3=O)C4=O)CC[C@]3(C)C(=CC[C@@H]4[C@@]5(C)CC[C@H](O)C(C)(C)[C@@H]5CC[C@]43C)[C@H]12 (stereo not given in full)	nM	250
CC1(C)CC[C@]2(C(=O)NCCCOCCCCOCCCNc3cccc4c3C(=O)N(C3CCC(=O)NC3=O)C4=O)CC[C@]3(C)C(=CC[C@@H]4[C@@]5(C)CC[C@H](O)C(C)(C)[C@@H]5CC[C@]43C)[C@@H]2C1 (stereo not given in full)	nM	770
CC1(C)CC[C@]2(C(=O)NCCCOCCOCCOCCCNc3cccc4c3C(=O)N(C3CCC(=O)NC3=O)C4=O)CC[C@]3(C)C(=CC[C@@H]4[C@@]5(C)CC[C@H](O)C(C)(C)[C@@H]5CC[C@]43C)[C@@H]2C1 (stereo not given in full)	nM	540

Go through the list and state DC50 for each entry.
1. CC1(C)CC[C@]2(C(=O)NCCCCCCOCCOCCOCCOCCCCCC(=O)Nc3cccc4c3C(=O)N(C3CCC(=O)NC3=O)C4=O)CC[C@]3(C)C(=CC[C@@H]4[C@@]5(C)CC[C@H](O)C(C)(C)[C@@H]5CC[C@]43C)[C@@H]2C1 (stereo not given in full)
2. C[C@H]1[C@H](C)CC[C@]2(C(=O)NCCCCCCOCCOCCOCCOCC(=O)Nc3cccc4c3C(=O)N(C3CCC(=O)NC3=O)C4=O)CC[C@]3(C)C(=CC[C@@H]4[C@@]5(C)CC[C@H](O)C(C)(C)[C@@H]5CC[C@]43C)[C@H]12 (stereo not given in full)

A.
200
200

----------
Tested System: Protein cereblon/Tyrosine-protein phosphatase non-receptor type 1 (Homo sapiens, UniProt P18031+Q96SW2)
Procedure Summary: PROTAC activity at PTP1B/CRBN in insulin treated human HepG2 cells assessed as protein degradation at 500 nM incubated for 48 hrs by Western blot analysis relative to control
Type: cell-based
Quantity Name: Activity (%)
Give bare numbers, in %.

Compound	Result Units	Activity
CC1(C)CC[C@]2(C(=O)NCCCOCCCCOCCCNc3cccc4c3C(=O)N(C3CCC(=O)NC3=O)C4=O)CC[C@]3(C)C(=CC[C@@H]4[C@@]5(C)CC[C@H](O)C(C)(C)[C@@H]5CC[C@]43C)[C@@H]2C1 (some centres not stated)	%	55

Now look at this one.
Q. Record request: Activity value, item C[C@H]1[C@H](C)CC[C@]2(C(=O)NCCCCCCOCCOCCOCCOCC(=O)Nc3cccc4c3C(=O)N(C3CCC(=O)NC3=O)C4=O)CC[C@]3(C)C(=CC[C@@H]4[C@@]5(C)CC[C@H](O)C(C)(C)[C@@H]5CC[C@]43C)[C@H]12 (some centres not stated)
A. 33

----------
Tested System: Protein cereblon/Tyrosine-protein phosphatase non-receptor type 1 (Homo sapiens, UniProt P18031+Q96SW2)
Procedure Summary: PROTAC activity at PTP1B/CRBN in insulin treated human HepG2 cells assessed as protein degradation at 500 nM incubated for 48 hrs by Western blot analysis relative to control
Type: cell-based
Please go through the items and note down their Activity.
Could you give the number and then its unit, please?

Solved entries (count: 2):
Compound	Activity
O=C1CCC(N2C(=O)c3cccc(NC(=O)COCCOCCCCCCNC(=O)c4cccc(NC(=O)CSc5nc6ccccc6[nH]5)c4)c3C2=O)C(=O)N1 (stereo not given)	43%
O=C1CCC(N2C(=O)c3cccc(NC(=O)CCCCCCCCCCNC(=O)c4cccc(NC(=O)CSc5nc6ccccc6[nH]5)c4)c3C2=O)C(=O)N1 (stereo not given)	19%

Batch request: Activity for each of the following compounds.
1. CC1(C)CC[C@]2(C(=O)NCCCCCCOCCOCCOCC(=O)Nc3cccc4c3C(=O)N(C3CCC(=O)NC3=O)C4=O)CC[C@]3(C)C(=CC[C@@H]4[C@@]5(C)CC[C@H](O)C(C)(C)[C@@H]5CC[C@]43C)[C@@H]2C1 (stereo not given in full)
2. C[C@H]1[C@H](C)CC[C@]2(C(=O)NCCCCCCOCCOCCOCCCCCC(=O)Nc3cccc4c3C(=O)N(C3CCC(=O)NC3=O)C4=O)CC[C@]3(C)C(=CC[C@@H]4[C@@]5(C)CC[C@H](O)C(C)(C)[C@@H]5CC[C@]43C)[C@H]12 (stereo not given in full)
3. C[C@H]1[C@H](C)CC[C@]2(C(=O)NCCCOCCOCCOCCCNc3cccc4c3C(=O)N(C3CCC(=O)NC3=O)C4=O)CC[C@]3(C)C(=CC[C@@H]4[C@@]5(C)CC[C@H](O)C(C)(C)[C@@H]5CC[C@]43C)[C@H]12 (stereo not given in full)

A.
1. 38%
2. 6%
3. 29%

----------
Tested System: Protein cereblon/Tyrosine-protein phosphatase non-receptor type 1 (Homo sapiens, UniProt P18031+Q96SW2)
Procedure Summary: PROTAC activity at PTP1B/CRBN in insulin treated human HepG2 cells assessed as protein degradation at 5000 nM incubated for 48 hrs by Western blot analysis relative to control
Type: cell-based
Answer each item with its documented Activity.

// batch mode: one Activity value per listed entry
1. C[C@H]1[C@H](C)CC[C@]2(C(=O)NCCCCCCOCCOCCOCCCCCC(=O)Nc3cccc4c3C(=O)N(C3CCC(=O)NC3=O)C4=O)CC[C@]3(C)C(=CC[C@@H]4[C@@]5(C)CC[C@H](O)C(C)(C)[C@@H]5CC[C@]43C)[C@H]12 (some centres undefined)
2. C[C@H]1[C@H](C)CC[C@]2(C(=O)NCCCOCCOCCOCCCNc3cccc4c3C(=O)N(C3CCC(=O)NC3=O)C4=O)CC[C@]3(C)C(=CC[C@@H]4[C@@]5(C)CC[C@H](O)C(C)(C)[C@@H]5CC[C@]43C)[C@H]12 (some centres undefined)
3. O=C1CCC(N2C(=O)c3cccc(NC(=O)CCCCCCCCCCNC(=O)c4cccc(NC(=O)CSc5nc6ccccc6[nH]5)c4)c3C2=O)C(=O)N1 (centres undefined)

A.
1: 17%; 2: 36%; 3: < 5%

Provide each entry's Activity from the list below.
1. C[C@H]1[C@H](C)CC[C@]2(C(=O)NCCCOCCCCOCCCNc3cccc4c3C(=O)N(C3CCC(=O)NC3=O)C4=O)CC[C@]3(C)C(=CC[C@@H]4[C@@]5(C)CC[C@H](O)C(C)(C)C5CC[C@]43C)[C@H]12 (some centres undefined)
2. CC1(C)CC[C@]2(C(=O)NCCCOCCCCOCCCNc3cccc4c3C(=O)N(C3CCC(=O)NC3=O)C4=O)CC[C@]3(C)C(=CC[C@@H]4[C@@]5(C)CC[C@H](O)C(C)(C)[C@@H]5CC[C@]43C)[C@@H]2C1 (some centres undefined)
3. C[C@H]1[C@H](C)CC[C@]2(C(=O)NCCCCCCOCCOCCCCCC(=O)Nc3cccc4c3C(=O)N(C3CCC(=O)NC3=O)C4=O)CC[C@]3(C)C(=CC[C@@H]4[C@@]5(C)CC[C@H](O)C(C)(C)[C@@H]5CC[C@]43C)[C@H]12 (some centres undefined)
4. CC1(C)CC[C@]2(C(=O)NCCCCCCOCCOCCOCCOCCCCCC(=O)Nc3cccc4c3C(=O)N(C3CCC(=O)NC3=O)C4=O)CC[C@]3(C)C(=CC[C@@H]4[C@@]5(C)CC[C@H](O)C(C)(C)[C@@H]5CC[C@]43C)[C@@H]2C1 (some centres undefined)

A.
1. 46%
2. 58%
3. 5%
4. 20%

Quick batch: Activity for everything below.
1. C[C@H]1[C@H](C)CC[C@]2(C(=O)NCCCCCCOCCOCCOCCOCCCCCC(=O)Nc3cccc4c3C(=O)N(C3CCC(=O)NC3=O)C4=O)CC[C@]3(C)C(=CC[C@@H]4[C@@]5(C)CC[C@H](O)C(C)(C)[C@@H]5CC[C@]43C)[C@H]12 (some centres undefined)
2. CC1(C)CC[C@]2(C(=O)NCCCCCCOCCOCCOCCOCC(=O)Nc3cccc4c3C(=O)N(C3CCC(=O)NC3=O)C4=O)CC[C@]3(C)C(=CC[C@@H]4[C@@]5(C)CC[C@H](O)C(C)(C)[C@@H]5CC[C@]43C)[C@@H]2C1 (some centres undefined)

A.
1: 42%; 2: 32%
